This listing pairs molecules with measured IC50.
- Test system: EJ
- assay-summary: Cytotoxicity against human EJ cells assessed as growth inhibition after 72 hrs by MTT assay
- Assay type: functional, cell-based
Just the number please, in µM, no unit attached.

CC(C)c1ccc2c(c1)CC[C@H]1[C@](C)(CN)CCC[C@]21C	4.82
CC(C)c1ccc2c(c1)CC[C@H]1[C@](C)(CNC(=S)N[C@H]3CCCC[C@@H]3N(C)C)CCC[C@]21C	4.19

Would you kindly look at the next entry?
Req: Can you share its IC50? I mean this molecule: CC(C)c1ccc2c(c1)CC[C@H]1[C@](C)(CNC(=S)N[C@H]3CCCC[C@@H]3N)CCC[C@]21C
Resp: 3.05

====

This listing pairs compounds with measured IC50.
- Tested on: EJ
- assay-summary: Cytotoxicity against human EJ cells assessed as growth inhibition after 72 hrs by MTT assay
- Format: functional, cell-based
Just the number please, in µM, no unit attached.

CC(C)c1ccc2c(c1)CC[C@H]1[C@](C)(CNC(=S)N[C@H]3CCCC[C@@H]3N3CCCC3)CCC[C@]21C	4.29
CC(C)c1ccc2c(c1)CC[C@H]1[C@](C)(CNC(=S)N[C@@H]3CCCC[C@H]3N3CCCC3)CCC[C@]21C	3.44
CC(C)c1ccc2c(c1)CC[C@H]1[C@](C)(C(=O)O)CCC[C@]21C [DEHYDROABIETIC ACID]	25.1

Req: Can you share its IC50? I mean this compound: C=CC1CN2CCC1CC2[C@H](NC(=S)NC[C@]1(C)CCC[C@]2(C)c3ccc(C(C)C)cc3CC[C@@H]12)c1ccnc2ccc(OC)cc12 (some centres undefined)
Resp: 2.07

====

- Test system: EJ
- assay-summary: Induction of apoptosis in human EJ cells assessed as early apoptotic cells at 5 uM after 24 hrs by annexin V-FITC/propidium iodide staining-based flow cytometric analysis (reference value: 0.01 to 0.04%)
- Assay type: functional
measure: Activity (%)
Just the number please, in %, no unit attached.

Past entries and their recorded results:
C=CC1CN2CCC1CC2[C@H](NC(=S)NC[C@]1(C)CCC[C@]2(C)c3ccc(C(C)C)cc3CC[C@@H]12)c1ccnc2ccc(OC)cc12 (stereo partly drawn)	89
CC(C)c1ccc2c(c1)CC[C@H]1[C@](C)(CNC(=S)N[C@H]3CCCC[C@@H]3N(C)C)CCC[C@]21C	92.2

Would you kindly look at the next entry?
Req: Item: CC(C)c1ccc2c(c1)CC[C@H]1[C@](C)(CN)CCC[C@]21C Test system: EJ Read-out: Activity Value: ?
Resp: 87.9

Each recorded value in this set is attributed to ChEMBL document CHEMBL2396547.
